Assay: protein stability index of a GFP-peptide fusion (GPS, HEK-293T) (PSI 1-6); higher = more stable;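 also: 24-mer peptide tiles fused after GFP, lentivirally expressed, FACS-sorted into six equal bins by GFP/DsRed ratio, decoded by Illumina sequencing, PSI is the read-weighted mean bin number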
Details: treatment: DMSO; c terminus: a fixed tail appended
measurement-kind: protein stability index

# sequence-code, protein stability index
measured = [
    ("MDGATLCNCALEELRLVFGPLGDQ [ELF3]", 2.33),
    ("DIVLMAQALEKIFLQKVAQMPQEE [BRD3]", 2.36),
    ("TLGGKAFHITNDEPIPFWTFLSRI [NSDHL]", 2.19),
    ("MAAGGSGVGGKRSSKSDADSGFLG [NOP53]", 3.57),
    ("YGAVELSGAGRRKNATRETTSTLK [IRX6]", 4.56),
]

# protein stability index of WSIVGMAVVKGIQSSGKVMYFSSL [SLC6A17] = 2.94

# protein stability index of ARRQHLKSVMLQIAATELEKEESR [TNNI2] = 4.31

# protein stability index of SKAHLEKVRSYVKRALAEGAQIWC [ALDH8A1] = 3.23

# protein stability index of MEGLAGYVYKAASEGKVLTLAALL [FEM1B] = 2.22

# protein stability index of NRVSAIIFSLATEWVISTGHDKCV [WDFY1] = 2.96

# protein stability index of GEGLRIYWGSPEEQSLLSRWNPWS [TPRG1] = 2.28

###

Assay: protein stability index of a GFP-peptide fusion (GPS, HEK-293T) (PSI 1-6); higher = more stable
Settings: treatment: MLN4924 1 uM, 8 h; c terminus: a fixed tail appended
Returns Y if the recorded protein stability index is greater than or equal to 3, and N otherwise.

# sequence-code, answer-label
records = [
    ("KRQVPTEQARAYAEKNCMTFFEVS [RAB40C]", "Y"),
    ("PATALGTASYPSDGCGADGLRSRV [NOL4L]", "Y"),
    ("QRLDYEREIQPTAILSLDQIKAIR [SPRY1]", "Y"),
    ("LQVTEDVNSSIKTFFCPNDTYNDM [CLCN6]", "Y"),
    ("IHGFPWWPARVLDISLGQKEDGEP [PWWP2B]", "Y"),
    ("GQCVQAFETHESDINSVRYYPSGD [GNB5]", "Y"),
    ("IVIADVKLVADFQRYILYWRKRFT [ZNF277]", "N"),
    ("DYKLLKPSLAVNLADPYRSLKAPG [JUNB]", "Y"),
]

input: Quick check: does DTTRVENLIKSENYGKILVEKNEH [R3HDM1] have protein stability index greater than or equal to 3?
output: Y

input: Quick check: does LLDHNANIDIQNGFLLRYAVIKSN [ASB7] have protein stability index greater than or equal to 3?
output: N

input: Quick check: does LHDCAESGSLEILQLLLGCKARME [FEM1A] have protein stability index greater than or equal to 3?
output: N

input: Quick check: does ADVTLDPETAHPNLVLSEDRKSVK [TRIM39] have protein stability index greater than or equal to 3?
output: Y

input: Quick check: does GGRPGGRGAPAVQQNIPSTLLQDH [WAS] have protein stability index greater than or equal to 3?
output: Y

input: Quick check: does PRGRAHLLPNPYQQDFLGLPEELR [C22orf15] have protein stability index greater than or equal to 3?
output: Y

input: Quick check: does RKLSLKGHNDWVMDVAISNNKKWI [WDR88] have protein stability index greater than or equal to 3?
output: N
